# Tested on: HT-29
# measurement_description: Induction of apoptosis in doxorubicin-resistant human HT29 cells assessed as activation of caspase 9 using LEHD-AMC substrate at 5 uM incubated for 24 hrs by fluorescence based assay
# Format: functional, cell-based
Activity calls are given as the source filed them. The calls are words filed in the database; no cut-off is given here.
Possible outcomes: Y (active), N (inactive)

1. COc1cccc2c1C(=O)c1c(O)c3c(c(O)c1C2=O)C[C@@](O)(C(=O)COC(=O)c1ccc(C(=O)OCO/N=[N+](\[O-])N2CCCC2)cc1)C[C@@H]3O[C@H]1C[C@H](N)[C@H](O)[C@H](C)O1.Cl :: N
2. COc1cccc2c1C(=O)c1c(O)c3c(c(O)c1C2=O)C[C@@](O)(C(=O)COC(=O)c1ccc(CC(CO[N+](=O)[O-])O[N+](=O)[O-])cc1)C[C@@H]3O[C@H]1C[C@H](N)[C@H](O)[C@H](C)O1 (stereo partly drawn) :: Y
3. COc1cccc2c1C(=O)c1c(O)c3c(c(O)c1C2=O)C[C@@](O)(C(=O)COC(=O)c1ccc(CCCO[N+](=O)[O-])cc1)C[C@@H]3O[C@H]1C[C@H](N)[C@H](O)[C@H](C)O1.Cl :: N
4. COc1cccc2c1C(=O)c1c(O)c3c(c(O)c1C2=O)C[C@@](O)(C(=O)COC(=O)c1ccc(OCCCO[N+](=O)[O-])cc1)C[C@@H]3O[C@H]1C[C@H](N)[C@H](O)[C@H](C)O1.Cl :: N
5. COc1cccc2c1C(=O)c1c(O)c3c(c(O)c1C2=O)C[C@@](O)(C(=O)COC(=O)c1ccc(Oc2no[n+]([O-])c2S(=O)(=O)c2ccccc2)cc1)C[C@@H]3O[C@H]1C[C@H](N)[C@H](O)[C@H](C)O1.Cl :: Y
6. COc1cccc2c1C(=O)c1c(O)c3c(c(O)c1C2=O)C[C@@](O)(C(=O)COC(=O)c1ccc(OCC(CO[N+](=O)[O-])O[N+](=O)[O-])cc1)C[C@@H]3O[C@H]1C[C@H](N)[C@H](O)[C@H](C)O1.Cl (stereo partly drawn) :: N
7. COc1cccc2c1C(=O)c1c(O)c3c(c(O)c1C2=O)C[C@@](O)(C(=O)COC(=O)C(C)(C)CO[N+](=O)[O-])C[C@@H]3O[C@H]1C[C@H](N)[C@H](O)[C@H](C)O1.Cl :: Y
8. COc1cccc2c1C(=O)c1c(O)c3c(c(O)c1C2=O)C[C@@](O)(C(=O)COC(=O)CCCC(CO[N+](=O)[O-])O[N+](=O)[O-])C[C@@H]3O[C@H]1C[C@H](N)[C@H](O)[C@H](C)O1.Cl (stereo partly drawn) :: N

---

# measurement_description: Prodrug release in human HT-29 cells assessed as increase in NO level by measuring plasma membrane associated MRP1/BCRP nitration mediated drug uptake at 5 uM incubated for 24 hrs by spectrofluorometric analysis
# Format: ADME, cell membranes
# stated_conditions: ht-29, 24 h
assay_readout: Drug uptake

1. COc1cccc2c1C(=O)c1c(O)c3c(c(O)c1C2=O)C[C@@](O)(C(=O)COC(=O)c1ccc(CC(CO[N+](=O)[O-])O[N+](=O)[O-])cc1)C[C@@H]3O[C@H]1C[C@H](N)[C@H](O)[C@H](C)O1 (stereo partly drawn) :: Active
2. COc1cccc2c1C(=O)c1c(O)c3c(c(O)c1C2=O)C[C@@](O)(C(=O)COC(=O)c1ccc(CCCO[N+](=O)[O-])cc1)C[C@@H]3O[C@H]1C[C@H](N)[C@H](O)[C@H](C)O1.Cl :: Active
3. COc1cccc2c1C(=O)c1c(O)c3c(c(O)c1C2=O)C[C@@](O)(C(=O)COC(=O)CCCCCO[N+](=O)[O-])C[C@@H]3O[C@H]1C[C@H](N)[C@H](O)[C@H](C)O1.Cl :: Active
